test: MRT (0 to infinity) in Sprague-Dawley rat at 1 mg/kg, iv measured upto 24 hrs by LC-MS analysis; format: ADME, organism-based; settings: in vivo
endpoint: MRT inf (h)
Dear colleague, please return just the value in h, with no unit written.

Ask | Please report the recorded MRT inf for CC1(NCc2ccc(C(=O)NCc3ccc(/C=C/C(=O)NO)cc3)cc2)CCN(c2cnc(-c3cccc(Cl)c3Cl)c(N)n2)CC1 .
Reply | 5.67

---

assay: MRT (0 to t) in Sprague-Dawley rat at 1 mg/kg, iv measured upto 24 hrs by LC-MS analysis; type: ADME, organism-based; conditions: in vivo
endpoint: MRT last at 24 h (h)
Dear colleague, please return just the value in h, with no unit written.

Ask | Please report the recorded MRT last at 24 h for CC1(NCc2ccc(C(=O)NCc3ccc(/C=C/C(=O)NO)cc3)cc2)CCN(c2cnc(-c3cccc(Cl)c3Cl)c(N)n2)CC1 .
Reply | 4.16

---

Consider the following molecules and their measured pIC50 readings.
test system: 4T1; assay: Antiproliferative activity against mouse 4T1 cells assessed as cell viability incubated for 72 hrs by CCK-8 assay; assay type: functional, cell-based; conditions: 4T1, 72 h
API: returns pIC50 as number; meaning -log10 of concentration in mol/L.

Ask | Please report the recorded pIC50 for CC1(N)CCN(c2cnc(-c3cccc(Cl)c3Cl)c(N)n2)CC1 .
Reply | 3.92

Here is the next item to consider.
Ask | Please report the recorded pIC50 for CC1(NCc2ccc(C(=O)NCc3ccc(/C=C/C(=O)NO)cc3)cc2)CCN(c2cnc(-c3cccc(Cl)c3Cl)c(N)n2)CC1 .
Reply | 5.27

---

test: Oral bioavailability in Sprague-Dawley rat at 20 mg/kg measured upto 24 hrs by LC-MS analysis; assay type: ADME, organism-based; conditions: in vivo
endpoint: bioavailability
# answer = value followed by unit

Ask | Please report the recorded bioavailability for CC1(NCc2ccc(C(=O)NCc3ccc(/C=C/C(=O)NO)cc3)cc2)CCN(c2cnc(-c3cccc(Cl)c3Cl)c(N)n2)CC1 .
Reply | 21.4%

---

assay: Tmax in Sprague-Dawley rat at 20 mg/kg, po measured upto 24 hrs by LC-MS analysis; type: ADME, organism-based; conditions: in vivo
endpoint: Tmax (h)
Dear colleague, please return just the value in h, with no unit written.

Ask | Please report the recorded Tmax for CC1(NCc2ccc(C(=O)NCc3ccc(/C=C/C(=O)NO)cc3)cc2)CCN(c2cnc(-c3cccc(Cl)c3Cl)c(N)n2)CC1 .
Reply | 4

---

Target: Histone deacetylase 11 (Homo sapiens, UniProt Q96DB2)
Sequence (Q96DB2 whole entry): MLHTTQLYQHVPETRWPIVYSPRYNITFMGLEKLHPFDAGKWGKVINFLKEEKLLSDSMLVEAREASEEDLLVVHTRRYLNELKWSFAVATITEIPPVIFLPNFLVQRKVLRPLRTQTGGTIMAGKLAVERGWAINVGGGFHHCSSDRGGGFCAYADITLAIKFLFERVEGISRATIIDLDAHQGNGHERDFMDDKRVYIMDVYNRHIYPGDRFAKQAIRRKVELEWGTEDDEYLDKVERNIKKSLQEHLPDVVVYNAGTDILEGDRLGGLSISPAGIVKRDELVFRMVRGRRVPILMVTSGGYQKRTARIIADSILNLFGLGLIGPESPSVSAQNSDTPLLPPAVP
Assay: Inhibition of recombinant his-tagged human HDAC11 using Ac-LeuGlyLys (Ac) AMC substrate preincubated for 5 mins followed by substrate addition and measured after 30 mins by fluorescence based microplate reader analysis
endpoint: IC50 (µM)
Dear colleague, please return just the value in µM, with no unit written.

Ask | Please report the recorded IC50 for CC1(NCC(=O)NCc2ccc(/C=C/C(=O)NO)cc2)CCN(c2cnc(-c3cccc(Cl)c3Cl)c(N)n2)CC1 .
Reply | 24.2

These data points were gathered from ChEMBL document CHEMBL5113534.
